assay.name: qHTS of pediatric cancer cell lines to identify multiple opportunities for drug repurposing: Confirmatory screen for U-2 OS cells (AID 1347122); note: nearly all actives have a fitted effect of over 65% in size; note: potency is the fitted concentration of half-maximal effect
experimental.conditions: U-2 OS osteosarcoma cell viability; series mostly up to 45.9 µM
Results filed as inconclusive are left out. Calls of active or inactive are those of the source. Calls come from the whole dose curve; as a rule, active = well fitted cell-killing curve with a large enough effect; inconclusive = small, poorly fitted or top-dose-only effect; inactive = no such curve, though single readings can be large or run the other way.
metric: Potency

[[record]]
molecule = "Nc1nc(OCc2ccccc2)c2[nH]cnc2n1"
metric = "Potency"
measured = "inactive"

[[record]]
molecule = "c1cnc2cc3c(cc2n1)C1CNCC3C1"
metric = "Potency"
measured = "inactive"

[[record]]
molecule = "CCN(CC)C(=S)SSC(=S)N(CC)CC"
metric = "Potency"
measured = "11.7 µM (active)"

[[record]]
molecule = "CCCOc1ccc2nc(NC(=O)OC)[nH]c2c1"
metric = "Potency"
measured = "2.08 µM (active)"

[[record]]
molecule = "O=C1c2c(O)cc(O)cc2OC(c2ccc(O)c(O)c2)C1O (stereo not drawn)"
metric = "Potency"
measured = "inactive"

[[record]]
molecule = "O=C(NCC1CCCCN1)c1cc(OCC(F)(F)F)ccc1OCC(F)(F)F (stereo not drawn)"
metric = "Potency"
measured = "inactive"


# input Record request: Potency value, item `CS(=O)(=O)OCCCCOS(C)(=O)=O`
# output inactive

# input Data request, read-out Potency, for `CCCCc1ccc2nc(NC(=O)OC)[nH]c2c1`
# output 0.329 µM (active)

# input If you can, please state the reported Potency value of `Nc1nc(Cl)nc2c1ncn2[C@H]1C[C@H](O)[C@@H](CO)O1` .
# output inactive

# input If you can, please state the reported Potency value of `CCOc1cc(CC(=O)N[C@@H](CC(C)C)c2ccccc2N2CCCCC2)ccc1C(=O)O` .
# output inactive

# input Give its Potency value. Item: `CC(C)C[C@H](NC(=O)[C@H](Cc1ccccc1)NC(=O)c1cnccn1)B(O)O`
# output 0.0585 µM (active)

# input Could you share which Potency value was measured for `Cc1c(C(=O)NN2CCCCC2)nn(-c2ccc(Cl)cc2Cl)c1-c1ccc(Cl)cc1` ?
# output 16.5 µM (active)

# input Record request: Potency value, item Nc1ccn([C@@H]2O[C@H](CO)[C@@H](O)C2O)c(=O)n1 (stereo partly drawn)
# output inactive
